Target: UniProtKB P56528
Sequence (P56528 1-304): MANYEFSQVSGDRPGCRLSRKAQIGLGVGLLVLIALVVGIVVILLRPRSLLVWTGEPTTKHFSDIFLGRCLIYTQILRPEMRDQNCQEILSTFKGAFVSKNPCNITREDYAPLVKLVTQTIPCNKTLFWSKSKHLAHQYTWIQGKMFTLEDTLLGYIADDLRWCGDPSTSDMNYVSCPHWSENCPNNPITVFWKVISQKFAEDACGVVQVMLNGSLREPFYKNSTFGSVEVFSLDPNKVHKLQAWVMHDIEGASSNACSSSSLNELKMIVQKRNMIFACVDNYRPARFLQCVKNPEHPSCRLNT
Experiment: mouse recombinant CD38 enzyme assay (hydrolysis of NAD+)
Conditions: read-out: mCD38 BioChem IC50
property label: log10 IC50 (log10 of the value in nM)

molecule	log10 IC50
O=C(N[C@H]1CC[C@H](O)CC1)c1nc(C(F)F)cc(-n2ccnc2)n1	1.45
CO[C@H]1CC[C@H](NC(=O)c2nc(-c3cncn3C)ncc2F)CC1	0.53
O=C(NC1CCCOC1)c1cccc(-n2ccnc2)n1 (stereo not drawn)	1.46
Cn1cncc1-c1nc(C(=O)N[C@H]2CCc3cc(F)ccc32)cc(C2CCOCC2)n1	0.40
O=C(NC1CC2(C1)CC(F)(F)C2)c1cncc(-n2ccnc2)n1	1.48
O=C(NC1CC2(C1)CC(F)(F)C2)c1ccnc(-n2ccnc2)n1	1.20
Cn1cncc1-c1ccnc(C(=O)N[C@H]2CC[C@H](OC(F)F)CC2)n1	1.19
Cn1cncc1-c1ccnc(C(=O)N[C@H]2CC[C@H](NCC(F)(F)F)CC2)n1	1.18
COc1cc(C(=O)N[C@H]2CC[C@H](OC)CC2)nc(-c2cncs2)n1	1.64
O=C(Nc1ccc(F)c(F)c1)c1cccc(-n2ccnc2)n1	0.78
CO[C@H]1CC[C@H](NC(=O)c2cc(O)nc(-n3ccnc3)n2)CC1	1.92
O=C(Nc1ccc(C(F)(F)F)nc1)c1cc(C2CCOCC2)nc(-n2ccnc2)n1	1.29
Cn1cncc1-c1ccnc(C(=O)N[C@H]2CC[C@H](CO)CC2)n1	1.19
O=C(NC1CC2C(C1)C2(F)F)c1cccc(-n2ccnc2)n1 (stereo not drawn)	1.18
Cc1ncc(-c2cncn2C)nc1C(=O)Nc1ccc(C(F)(F)F)nc1	1.00
O=C(Nc1ccnc(C(F)(F)F)c1)c1cccc(-n2ccnc2)n1	0.85
CC(=O)N1CC2(CC(NC(=O)c3cccc(-n4ccnc4)n3)C2)C1	2.00
CC(=O)N1CCC(NC(=O)c2cccc(-n3ccnc3)n2)CC1	1.82
